Target: T1, human CD276 protein (human, UniProt Q5ZPR3 29-534)
T1 construct: whole, on cells; for SKOV3 and the other cancer lines the protein is the cells' own; also called B7-H3; B7H3
T1 sequence (looked up): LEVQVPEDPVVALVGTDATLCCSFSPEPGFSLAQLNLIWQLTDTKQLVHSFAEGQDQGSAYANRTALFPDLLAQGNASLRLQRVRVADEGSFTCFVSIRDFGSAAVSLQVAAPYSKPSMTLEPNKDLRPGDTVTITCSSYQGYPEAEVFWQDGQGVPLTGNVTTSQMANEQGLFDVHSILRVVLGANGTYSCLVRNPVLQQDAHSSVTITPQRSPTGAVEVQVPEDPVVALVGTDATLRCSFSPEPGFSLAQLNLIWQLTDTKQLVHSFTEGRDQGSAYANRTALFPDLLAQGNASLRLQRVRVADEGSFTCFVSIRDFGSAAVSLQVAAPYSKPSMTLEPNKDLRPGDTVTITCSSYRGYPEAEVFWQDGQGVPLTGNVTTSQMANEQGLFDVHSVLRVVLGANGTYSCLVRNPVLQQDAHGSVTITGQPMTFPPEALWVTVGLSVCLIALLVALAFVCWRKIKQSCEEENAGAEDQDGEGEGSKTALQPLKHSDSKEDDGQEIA
Assay: FACS on SKOV3 cells
MEASURED_QUANTITY: EC50 (µg/mL)
Provide only the numeric value, understood in µg/mL.

Look over these answered cases.
{"columns": ["BINDER", "ENDPOINT_UNIT", "EC50"],
 "data": [
  ["22-E11-C3-F2 (human IgG1 chimeric antibody) (antibody, V domains shown, human IgG1 chimeric antibody of the mouse clone) VH: QIQLVQSGPELKRPGETVKISCKASGYSFTNYGMNWVKQAPGKGLKWMGWINPYTGEPTYADDFKGRFAMSLETSASAAYLQINNLKNEDMATYFCGRDDGYHYTMNYWGQGTSVTVSS VL: DVVMTQPPLSLPVSLGDQASISCRSSQSLIHSNGDTYLHWYLQKPGQSPKLLIYKVSIRFSGVPDRFSGSGSGTDFTLKISRVEAEDLGVYFCSQSTYVPWTFGGGTKLEIK", "µg/mL", 0.523],
  ["15-C8-B5-G7 (human IgG1 chimeric antibody) (antibody, V domains shown, human IgG1 chimeric antibody of the mouse clone) VH: QVQLQQPGAELVKPGASVKLSCKASDYTFTSHWMHWVKQRPGQGLEWIGMIHPNSGTTHYNENFKNKATLTVDNSSSTAYMQLSSLTSEDSAVYYCAWGSSNSYFYAMAYWGQGTSVTVSS VL: QAVVTQESALTTSPGETVTLTCRSSTGAVTTSNYANWVQEKPAHLFTGLIGGTNNRAPGVPARFSGSLIGDKAALTITGAQTEDEAIYFCALWFSNHLVFGGGTKLTVL", "µg/mL", 0.293]
]}

Then this binder:
Using the record for 25-D3-G4-C6 (human IgG1 chimeric antibody) (antibody, V domains shown, human IgG1 chimeric antibody of the mouse clone) VH: EIQLQQTGPELVKPGASVKISCKASGYSFTDYIILWVKQSHGMSLEWIGNINPYYNSTYYNLKFKGKATLTVDKSSSTAYMQLDSLTSEDSAVYYCARDSFDWYFGVWGAGTTVTVSS VL: DVVMTQTPLSLPVSLGDQASISCRSSQSLVHSNGNTYLHWYLQKPGQSPKLLIYKVSNRFSGVPDRFSGSGSGTDFTLKISRVETEDLGIYFCSQSTHVPPLTFGAGTKLELK , report its EC50.
1.27
